System tested: FGFR2 (h) (Homo sapiens)
Sequence (P21802 22-821): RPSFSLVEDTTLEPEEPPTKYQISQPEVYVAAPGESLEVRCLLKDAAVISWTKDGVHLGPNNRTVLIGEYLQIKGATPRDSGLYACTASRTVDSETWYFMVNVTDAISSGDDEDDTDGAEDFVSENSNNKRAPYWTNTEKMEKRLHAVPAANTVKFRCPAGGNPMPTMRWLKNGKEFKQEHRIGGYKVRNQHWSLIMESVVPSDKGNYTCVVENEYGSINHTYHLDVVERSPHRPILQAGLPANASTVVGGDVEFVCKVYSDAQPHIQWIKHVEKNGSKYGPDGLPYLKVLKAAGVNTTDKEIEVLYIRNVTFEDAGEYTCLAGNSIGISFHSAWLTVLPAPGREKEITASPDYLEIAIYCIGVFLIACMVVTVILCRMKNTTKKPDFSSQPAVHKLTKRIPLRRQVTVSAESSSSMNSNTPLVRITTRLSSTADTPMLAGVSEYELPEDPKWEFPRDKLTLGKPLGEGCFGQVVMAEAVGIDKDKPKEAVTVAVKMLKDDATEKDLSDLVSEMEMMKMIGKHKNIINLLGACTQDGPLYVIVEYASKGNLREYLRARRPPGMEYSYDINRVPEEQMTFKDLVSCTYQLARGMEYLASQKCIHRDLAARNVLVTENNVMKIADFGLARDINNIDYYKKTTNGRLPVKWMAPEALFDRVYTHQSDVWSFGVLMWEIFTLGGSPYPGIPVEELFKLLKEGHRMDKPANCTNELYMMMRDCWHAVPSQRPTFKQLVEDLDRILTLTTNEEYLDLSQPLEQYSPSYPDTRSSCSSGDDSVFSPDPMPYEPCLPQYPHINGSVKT
Experiment summary: FGFR2 (enzymatic assay), TR-FRET
Format: biochemical
Assay context: enzymatic assay; read-out: FGFR 2 pIC50 (converted)
Method: In a final reaction volume of 30 μL, FGFR2 (h) (150 ng/ml) was incubated with 50 mM HEPES pH 7.5, 6 mM MnCl2, 1 mM DTT, 0.1 mM Na3VO4, 0.01% Triton-X-100, 500 nM Btn-Flt3 and 0.4 μM ATP in the presence of compound (1% DMSO final).
We'd kindly ask you to apply these IC50 classes: low bin: < 2 nM; mid bin: ≥ 2 nM and < 3 nM; high bin: ≥ 3 nM

The following compounds have reported results that may help.
>>> class("COc1cc(OC)cc(N(CC2CCCCO2)c2ccc3ncc(-c4cnn(C)c4)nc3n2)c1 (centres unmarked) [Compound 129]")
"mid bin"
>>> class("COc1cc(OC)cc(N(Cc2ncc[nH]2)c2ccc3ncc(-c4ccn(C)c4)nc3n2)c1 [Compound 198]")
"low bin"
>>> class("COc1cc(/N=c2\\ccc3ncc(-c4cnn(C)c4)nc3n2Cc2cc(C)on2)c(F)c(OC)c1 [Compound 181]")
"mid bin"
>>> class("COCC(O)Cn1/c(=N/c2cc(OC)cc(OC)c2F)ccc2ncc(-c3cnn(C)c3)nc21 (single isomer, unassigned) [Compound 60]")
"low bin"

Kindly state the category for this compound: COc1cc(OC)c(F)c(N(CC2CC2)c2ccc3ncc(-c4cnn(C)c4)nc3n2)c1F (single isomer, unassigned) [Compound 268]
mid bin

Kindly state the category for this compound: COc1cc(OC)c(F)c(/N=c2\ccc3ncc(-c4cnn(C)c4)nc3n2C)c1F (single isomer, unassigned) [Compound 255]
low bin

Kindly state the category for this compound: COc1cc(/N=c2\ccc3ncc(-c4cnn(C)c4)nc3n2CCCN2CCCC2=O)c(F)c(OC)c1 [Compound 119]
low bin

Kindly state the category for this compound: COc1cc(OC)cc(N(Cc2ncc[nH]2)c2ccc3ncc(-c4ccccc4)nc3n2)c1 [Compound 152]
low bin

---

System tested: Ba/F3-FGFR3-transfected cells (Homo sapiens, UniProt P22607)
Construct: BAF3-FGFR3 (MIN IL3) pIC50; other: minus IL3
Sequence (P22607 whole entry, change not shown): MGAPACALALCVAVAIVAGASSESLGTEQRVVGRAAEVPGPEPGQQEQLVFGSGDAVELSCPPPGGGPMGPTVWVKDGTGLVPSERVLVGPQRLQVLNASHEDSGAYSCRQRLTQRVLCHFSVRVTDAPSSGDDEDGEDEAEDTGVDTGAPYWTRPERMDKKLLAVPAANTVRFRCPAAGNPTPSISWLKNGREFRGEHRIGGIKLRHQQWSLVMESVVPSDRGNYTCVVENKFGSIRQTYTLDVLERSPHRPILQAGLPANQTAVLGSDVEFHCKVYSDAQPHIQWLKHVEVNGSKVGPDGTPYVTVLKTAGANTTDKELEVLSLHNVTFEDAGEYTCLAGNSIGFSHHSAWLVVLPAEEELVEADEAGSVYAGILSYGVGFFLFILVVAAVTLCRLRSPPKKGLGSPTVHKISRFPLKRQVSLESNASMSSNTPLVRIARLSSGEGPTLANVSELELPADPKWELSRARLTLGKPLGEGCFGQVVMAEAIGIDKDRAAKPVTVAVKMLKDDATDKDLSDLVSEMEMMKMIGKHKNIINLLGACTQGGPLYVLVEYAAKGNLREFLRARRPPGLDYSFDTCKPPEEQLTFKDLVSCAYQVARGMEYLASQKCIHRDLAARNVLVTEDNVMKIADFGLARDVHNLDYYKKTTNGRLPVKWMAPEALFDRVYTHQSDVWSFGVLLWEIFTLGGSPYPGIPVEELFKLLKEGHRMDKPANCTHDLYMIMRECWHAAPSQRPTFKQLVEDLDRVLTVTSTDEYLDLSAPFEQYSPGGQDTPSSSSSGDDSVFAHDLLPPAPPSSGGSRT
Experiment summary: Ba/F3-FGFR3 (minus IL3) cellular proliferation assay, Alamar Blue
Format: cell-based
Endpoint: BAF3-FGFR3 (MIN IL3) pIC50

In the examples that follow, each entry is paired with its recorded BAF3-FGFR3 (MIN IL3) pIC50.
>>> recorded_measurement("COc1cc(OC)cc(N(Cc2nn[nH]n2)c2ccc3ncc(-c4cnn(C)c4)nc3n2)c1 [Compound 197]")
"<5"
>>> recorded_measurement("CCOCc1c[nH]c(CN(c2ccc3ncc(-c4cnn(C)c4)nc3n2)c2cc(OC)cc(OC)c2F)n1 [Compound 206]")
"~8.12"
>>> recorded_measurement("COc1cc(OC)c(F)c(/N=c2\\ccc3ncc(-c4cnn(C)c4)nc3n2CC2CCC(=O)N2)c1F (stereo not shown) [Compound 193]")
"~8.06"

We now examine a further compound.
BAF3-FGFR3 (MIN IL3) pIC50 of COc1cc(OC)c(F)c(N(CC2COC(=O)N2)c2ccc3ncc(-c4cnn(C)c4)nc3n2)c1 (single isomer, unassigned) [Compound 111] on Ba/F3-FGFR3-transfected cells (Homo sapiens, UniProt P22607)?
7.58
